molecular target: T1, Histidine-tagged human CD3e protein (human, UniProt P07766 23-126); assay: SPR (Biacore), human CD3e
T1 construct: also called hCD3e-His; not shown: His tag
T1 sequence (P07766 23-126 limits assumed): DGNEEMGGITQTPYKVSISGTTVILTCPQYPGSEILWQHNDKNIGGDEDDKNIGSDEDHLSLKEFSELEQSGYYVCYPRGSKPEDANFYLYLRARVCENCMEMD
Measured endpoint: pKd
# pKd is unitless: minus log10 of the molar concentration; print number only

Past entries and their recorded results:
INSERT INTO assay_data (binder, measured_endpoint, result) VALUES
  ('1B1-H4K1-IgG1-LALA (antibody, V domains shown, Humanized; human IgG1 with LALA mutations; also called H4K1 (humanized 1B1)) VH: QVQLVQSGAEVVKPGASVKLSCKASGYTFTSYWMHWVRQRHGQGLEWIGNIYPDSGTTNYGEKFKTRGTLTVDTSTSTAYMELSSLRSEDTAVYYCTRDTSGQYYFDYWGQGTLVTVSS VL: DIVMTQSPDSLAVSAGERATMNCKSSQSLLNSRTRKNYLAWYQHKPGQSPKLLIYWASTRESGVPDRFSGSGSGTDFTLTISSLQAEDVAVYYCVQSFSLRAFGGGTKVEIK', 'pKd', 9.09),
  ('1B1-H1K2-IgG1-LALA (antibody, V domains shown, Humanized; human IgG1 with LALA mutations; also called H1K2 (humanized 1B1)) VH: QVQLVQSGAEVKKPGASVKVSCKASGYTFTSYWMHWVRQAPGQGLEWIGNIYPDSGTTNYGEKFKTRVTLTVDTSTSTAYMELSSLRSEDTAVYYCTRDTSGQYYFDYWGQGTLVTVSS VL: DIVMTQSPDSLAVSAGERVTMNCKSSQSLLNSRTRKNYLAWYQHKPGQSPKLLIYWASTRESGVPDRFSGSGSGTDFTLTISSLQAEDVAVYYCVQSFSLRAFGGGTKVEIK', 'pKd', 8.92);

# ---- query binder ----
Incoming: Which value of pKd has been reported for 1B1-H1K3-IgG1-LALA (antibody, V domains shown, Humanized; human IgG1 with LALA mutations; also called H1K3 (humanized 1B1)) VH: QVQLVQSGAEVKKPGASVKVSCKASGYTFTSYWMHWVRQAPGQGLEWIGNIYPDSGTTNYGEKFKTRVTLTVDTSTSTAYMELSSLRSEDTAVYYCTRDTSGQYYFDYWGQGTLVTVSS VL: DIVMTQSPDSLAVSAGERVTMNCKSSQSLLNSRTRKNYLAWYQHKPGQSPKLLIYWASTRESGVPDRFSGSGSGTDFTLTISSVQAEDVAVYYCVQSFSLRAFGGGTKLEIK in the records?
Outgoing: 8.48
